Target: T1, human GPC3-his tag protein (human, UniProt P51654 25-559, limits assumed)
T1 construct: recombinant soluble antigen used as analyte in all Biacore runs; also called recombinant GPC3 protein; rhGPC3-His; not shown: His tag
Test: SPR Biacore 8K, mAb captured, affinity ranking
Catalogue of binders with associated koff
Report only the number, with the unit s⁻¹ understood.

Some solved entries appear below for comparison.
INSERT INTO results (binder, readout_units, recorded_measurement) VALUES
  ('Hu 52H5D3B8-2 (antibody, V domains shown, humanized 52H5D3B8; also called 52H5D3B8 VH0 + VL1) VH: EVQLVQSGAEVKKPGASVKVSCKASGYTFTDYEMHWVRQAPGQGLEWMGAIHPGSGGTAYNQKFKGRVTMTRDTSISTAYMELSRLRSDDTAVYYCARFYSYAYWGQGTLVTVSS VL: DVVMTQTPLSLSVTPGQPASISCRSSQSLVHSNGNTYLQWYLQKPGQSPQLLIYKVSNRFSGVPDRFSGSGSGTDFTLKISRVEAEDVGVYFCSQSIHVPYTFGGGTKVEIK', 's⁻¹', 0.00163),
  ('Hu 52H5D3B8-11 (antibody, V domains shown, humanized 52H5D3B8; also called 52H5D3B8 VH5 + VL0) VH: EVQLVQSGAEVKKPGASVKVSCKASGYTFTDYEMHWVRQAPGQGLEWIGAIHPGSGGTAYNQKFKGKATLTADKSISTAYMELSRLRSDDTAVYYCTRFYSYAYWGQGTLVTVSS VL: DVVMTQTPLSLSVTPGQPASISCRSSQSLVHSNGNTYLQWYLQKPGQSPQLLIYKVSNRFSGVPDRFSGSGSGTDFTLKISRVEAEDVGVYYCSQSIHVPYTFGGGTKVEIK', 's⁻¹', 0.000905);

Attention now turns to another entry.
Any idea what koff was measured for Hu 52H5D3B8-3 (antibody, V domains shown, humanized 52H5D3B8; also called 52H5D3B8 VH1 + VL0) VH: EVQLVQSGAEVKKPGASVKVSCKASGYTFTDYEMHWVRQAPGQGLEWMGAIHPGSGGTAYNQKFKGRVTMTRDTSISTAYMELSRLRSDDTAVYYCTRFYSYAYWGQGTLVTVSS VL: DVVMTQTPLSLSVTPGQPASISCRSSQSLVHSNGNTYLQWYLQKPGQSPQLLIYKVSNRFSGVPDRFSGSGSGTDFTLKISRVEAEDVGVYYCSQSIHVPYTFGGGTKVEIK ? 0.00176
